Source listed as paper PMC5769417.

# protocol-notes: Single-dose trial, plasma pharmacokinetics
# Type: in vivo, human
# reported-conditions: both sexes, human, plasma, oral, medians, both trials; read-out: Tmax in this study
readout: Tmax

Can you look up the measured Tmax of CC(C)=CCC[C@](C)(OC1O[C@H](CO)[C@@H](O)[C@H](O)[C@H]1O)[C@H]1CC[C@]2(C)[C@@H]1[C@H](O)C[C@@H]1[C@@]3(C)CC[C@H](O)C(C)(C)[C@@H]3CC[C@]12C (stereo partly shown) for me?
2.5 to 3.8 h

* * *

# protocol-notes: Single-dose trial, plasma pharmacokinetics
# Assay type: in vivo, human
# reported-conditions: both sexes, human, plasma; single-dose trial, 800 mg oral, fasting; read-out: Cmax
readout: Cmax (µg/mL)
Please reply with the bare figure in µg/mL and do not write the unit itself.

Can you look up the measured Cmax of CC(C)=CCC[C@](C)(OC1O[C@H](CO)[C@@H](O)[C@H](O)[C@H]1O)[C@H]1CC[C@]2(C)[C@@H]1[C@H](O)C[C@@H]1[C@@]3(C)CC[C@H](O)C(C)(C)[C@@H]3CC[C@]12C (stereo partly shown) for me?
1.18
